test system: NIH3T3; experiment: Effective dose against murine 3T3 fibroblasts cells; type: functional; details: Mus musculus, read-out: ED50 (the source's name)
pEC50: −log10 of the molar value.
experimentalReadout: pEC50

Solved entries (count: 8):
CCOC(=O)[C@H](CCSC)NC(=O)c1ccc(CNCc2c[nH]cn2)cc1-c1ccccc1C
5.00
CSCC[C@H](NC(=O)c1ccc(NCc2cncn2Cc2ccccc2C#N)cc1-c1ccccc1)C(=O)O
< 5.00
N#Cc1ccc(Cn2cncc2CNc2ccc(C(=O)NCC3CCCCC3)c(-c3ccccc3)c2)cc1
< 5.00
CSCC[C@H](NC(=O)c1ccc(NCc2cncn2Cc2cccc(C#N)c2)cc1-c1ccccc1)C(=O)O
< 5.00
COC(=O)[C@H](CCSC)NC(=O)c1ccc(NC[C@@H](N)CS)cc1-c1ccccc1
< 4.60
COC(=O)[C@H](CCSC)NC(=O)c1ccc(CNCc2c[nH]cn2)cc1-c1ccccc1C
4.60
COC(=O)[C@H](CCSC)NC(=O)c1ccc(NCc2cncn2Cc2ccccc2Cl)cc1-c1ccccc1
< 5.00
N#Cc1ccc(Cn2cncc2CNc2ccc(C(=O)Nc3cccc(C#N)c3)c(-c3ccccc3)c2)cc1
< 5.00

Could you now look at the following compound, please?
Query CSCC[C@H](NC(=O)c1ccc(NCc2cncn2Cc2ccccc2Cl)cc1-c1ccccc1)C(=O)O on NIH3T3; pEC50 returned: < 5.00

----------
target: protein farnesyltransferase (Trypanosoma brucei); assay: Inhibition of Trypanosoma brucei protein farnesyltransferase
experimentalReadout: IC50 (nM)

I. CSCC[C@H](NC(=O)c1ccc(NC(=O)Cc2cncn2C)cc1-c1ccccc1C)C(=O)O
II. COC(=O)[C@H](CCSC)NC(=O)c1ccc(NC[C@@H](N)CS)cc1-c1ccccc1
III. CSCC[C@H](NC(=O)c1ccc(CNCc2c[nH]cn2)cc1-c1ccccc1C)C(=O)O
Exam item: Please give the order of these compounds when sorted by IC50, largest value leading. Output spec: a listing of the labels in the requested order.
Marked response: II, I, III
(II: 40 nM, I: 6.6 nM, III: 1.8 nM)

----------
tested on: NIH3T3; assay: Effective dose against murine 3T3 fibroblasts cells; format: functional; details: Mus musculus, read-out: ED50 (the source's name)
experimentalReadout: EC50

CSCC[C@H](NC(=O)c1ccc(CNCc2c[nH]cn2)cc1-c1ccccc1C)C(=O)OC(C)C
10 µM
COC(=O)[C@H](CCSC)NC(=O)c1ccc(NCc2cncn2Cc2ccc(Cl)cc2)cc1-c1ccccc1
> 10 µM
CSCC[C@H](NC(=O)c1ccc(NCc2cncn2Cc2ccc(Cl)cc2)cc1-c1ccccc1)C(=O)O
> 10 µM
COC(=O)[C@H](CCSC)NC(=O)c1ccc(NCc2cncn2Cc2cccc(C#N)c2)cc1-c1ccccc1
> 10 µM
CSCC[C@H](NC(=O)c1ccc(NC(=O)Cc2cncn2C)cc1-c1ccccc1C)C(=O)O
> 25 µM

EC50 reading for CSCNC(=O)c1ccc(NCc2cncn2Cc2ccc(C#N)cc2)cc1-c1ccccc1 : > 10 µM

Record COC(=O)[C@H](CCSC)NC(=O)c1ccc(NCc2cncn2Cc2ccccc2C)cc1-c1ccccc1 . Reported EC50: > 10 µM

Quick note, EC50 for COC(=O)[C@H](CCSC)NC(=O)c1ccc(NCc2cncn2Cc2cccc([N+](=O)[O-])c2)cc1-c1ccccc1 landed at > 10 µM

----------
Examples of molecules with documented inhibition follow.
system: protein farnesyltransferase (Trypanosoma brucei); experiment: Inhibition of Trypanosoma brucei protein farnesyltransferase at 50 nM (0-14%)

Reported inhibition ( COC(=O)[C@H](CCSC)NC(=O)c1ccc(NCc2cncn2Cc2ccc(C)cc2)cc1-c1ccccc1 ) = ≤ 14%

Entry under test: COC(=O)[C@H](CCSC)NC(=O)c1ccc(NCc2cncn2Cc2ccc(C#N)cc2)cc1-c1ccccc1 . Its inhibition was ≤ 14%

// field: inhibition; key: COC(=O)[C@H](CCSC)NC(=O)c1ccc(NCc2cncn2Cc2ccc([N+](=O)[O-])cc2)cc1-c1ccccc1 ; value = ≤ 14%

molecule COC(=O)[C@H](CCSC)NC(=O)c1ccc(NCc2cncn2Cc2ccc(Cl)cc2)cc1-c1ccccc1 , inhibition observed: ≤ 14%

For COC(=O)[C@H](CCSC)NC(=O)c1ccc(NCc2cncn2Cc2ccc(-c3ccccc3)cc2)cc1-c1ccccc1 the molecule record lists inhibition as 14%

----------
biological target: protein farnesyltransferase (Trypanosoma brucei); assay: Inhibition of Trypanosoma brucei protein farnesyltransferase at 50 nM
experimentalReadout: IC50 (nM)
Quick reminder: number only, in nM, skip the unit.

The molecule listed as CSCC[C@H](NC(=O)c1ccc(NCc2cncn2Cc2ccc(-c3ccccc3)cc2)cc1-c1ccccc1)C(=O)O shows IC50 equal to 8

----------
system: Trypanosoma brucei brucei; test: Dose required to inhibit growth of Trypanosoma brucei; 0.5-5 uM; assay type: functional; conditions: read-out: ED50
pEC50: −log10 of the molar value.
experimentalReadout: pEC50

COC(=O)[C@H](CCSC)NC(=O)c1ccc(NCc2cncn2Cc2ccc(C#N)cc2)cc1-c1ccccc1
≥ 5.30
COC(=O)[C@H](CCSC)NC(=O)c1ccc(NCc2cncn2Cc2ccc(Cl)cc2)cc1-c1ccccc1
≥ 5.30
COC(=O)[C@H](CCSC)NC(=O)c1ccc(NCc2cncn2Cc2ccc([N+](=O)[O-])cc2)cc1-c1ccccc1
≥ 5.30
COC(=O)[C@H](CCSC)NC(=O)c1ccc(NCc2cncn2Cc2ccc(-c3ccccc3)cc2)cc1-c1ccccc1
≥ 5.30

Could you now look at the following molecule, please?
GET /value?item= COC(=O)[C@H](CCSC)NC(=O)c1ccc(NCc2cncn2Cc2ccc(C)cc2)cc1-c1ccccc1 &field=pEC50 returns ≥ 5.30

----------
test system: Protein farnesyltransferase (Trypanosoma brucei); test: Inhibition of Trypanosoma brucei protein farnesyltransferase at 50 nM (82-87%)
experimentalReadout: inhibition

# count of solved cases: 3
CSCC[C@H](NC(=O)c1ccc(NCc2cncn2Cc2ccc(C#N)cc2)cc1-c1ccccc1)C(=O)O
≤ 87%
CSCC[C@H](NC(=O)c1ccc(NCc2cncn2Cc2ccc(C)cc2)cc1-c1ccccc1)C(=O)O
≤ 87%
CSCC[C@H](NC(=O)c1ccc(NCc2cncn2Cc2ccc([N+](=O)[O-])cc2)cc1-c1ccccc1)C(=O)O
87%

Okay, next one:
Measured inhibition, CSCC[C@H](NC(=O)c1ccc(NCc2cncn2Cc2ccc(Cl)cc2)cc1-c1ccccc1)C(=O)O : ≤ 87%

----------
target: Protein farnesyltransferase (Homo sapiens, UniProt P49354+P49356); test: Inhibition of mammalian protein farnesyltransferase
experimentalReadout: pIC50
Note on pIC50: it is the negative log10 of concentration, concentration in mol/L.

Short answer for CSCC[C@H](NC(=O)c1ccc(CNCc2c[nH]cn2)cc1-c1ccccc1C)C(=O)O : pIC50 was 9.07

----------
test system: Trypanosoma brucei brucei; test: Effective dose required to inhibit the growth of Trypanosoma brucei; format: functional; settings: read-out: ED50 (the source's name)
experimentalReadout: EC50 (µM)

Worked cases, answers included:
CSCC[C@H](NC(=O)c1ccc(CNCc2c[nH]cn2)cc1-c1ccccc1C)C(=O)OC(C)C
0.005
CSCC[C@H](NC(=O)c1ccc(CNCc2c[nH]cn2)cc1-c1ccccc1C)C(=O)OC1CCCCC1
0.03
COC(=O)[C@H](CCSC)NC(=O)c1ccc(NC[C@@H](N)CS)cc1-c1ccccc1
0.7
COC(=O)[C@H](CCSC)NC(=O)c1ccc(CNCc2cncn2Cc2ccc(C#N)cc2)cc1-c1ccccc1C
0.5
CCCCC(CC)OC(=O)[C@H](CCSC)NC(=O)c1ccc(CNCc2c[nH]cn2)cc1-c1ccccc1C (some centres not stated)
0.02

I. COC(=O)[C@H](CCSC)NC(=O)c1ccc(CN(Cc2c[nH]cn2)Cc2c[nH]cn2)cc1-c1ccccc1C
II. COC(=O)[C@H](CCSC)NC(=O)c1ccc(CNCc2c[nH]cn2)cc1-c1ccccc1C
Exam item: Higher EC50: I or II ? Your choice should be expressed through its label.
Marked response: I
(I: 0.1 µM, II: 0.025 µM)

I. CCOC(=O)[C@H](CCSC)NC(=O)c1ccc(CNCc2c[nH]cn2)cc1-c1ccccc1C
II. CSCC[C@H](NC(=O)c1ccc(CNCc2c[nH]cn2)cc1-c1ccccc1C)C(=O)O
Exam item: Given the listed records, identify the one among I and II with higher EC50. Lab note: record the label of whichever item you select.
Marked response: II

P. C=COC(=O)[C@H](CCSC)NC(=O)c1ccc(CNCc2c[nH]cn2)cc1-c1ccccc1C
Q. N#Cc1ccc(Cn2cncc2CNc2ccc(C(=O)NCc3ccccc3)c(-c3ccccc3)c2)cc1
Exam item: // compare measured EC50, left P , right Q , return larger Returns: label corresponding to the selected item.
Marked response: Q

----------
system: Trypanosoma brucei brucei; assay: Effective dose required to inhibit the growth of Trypanosoma brucei; assay type: functional; settings: read-out: ED50 (the source's name)
pEC50: −log10 of the molar value.
experimentalReadout: pEC50

Recorded results for 3 molecules are shown here.
CSCC[C@H](NC(=O)c1ccc(CNCc2c[nH]cn2)cc1-c1ccccc1C)C(=O)OCc1ccccc1
7.70
N#Cc1ccc(Cn2cncc2CNc2ccc(C(=O)Nc3cccc([N+](=O)[O-])c3)c(-c3ccccc3)c2)cc1
< 5.00
CSCC[C@H](NC(=O)c1ccc(NCc2cncn2Cc2ccccc2C)cc1-c1ccccc1)C(=O)O
< 5.00

Here is the next item to consider.
Item CSCC[C@H](NC(=O)c1ccc(NCc2cncn2Cc2ccc(Cl)cc2)cc1-c1ccccc1)C(=O)O was tested on Trypanosoma brucei brucei; the reported pEC50 is < 5.00

All values here come from ChEMBL document CHEMBL1148384.
